target: T1, EGF receptor (UniProt P00533 25-1210, limits assumed); assay: competition of fdEGF phage binding to A431 cells, FACS, inhibition from mean fluorescence intensity
T1 construct: whole, on cells; also called epidermal growth factor receptor
pIC50: −log10 of the molar value.
measureName: pIC50

binder | measureName | result
HisEGFm1 (EGFm1 with N-terminal hexahistidyl tag) (ligand, human, UniProt P01133 971-1023, looked up, mature; Clone 6 of the EGF2 library selection, expressed in the E. coli periplasm and purified by IMAC; The preparation also held molecules of about 15 kDa (dimer size); also called purified EGFm1; soluble EGFm1; not shown: N-terminal hexahistidyl tag (HHHHHH); primer SfiHisEGF encodes ...Met-Ala-Gly-His6-Ala befor) NSDSECPLSHDGYCLHDGVCMYIEALDQYACNCVVGYIGERCQYSDLSWWELS | pIC50 | ~6.30
